B1: TPR t1 (parent)
chain: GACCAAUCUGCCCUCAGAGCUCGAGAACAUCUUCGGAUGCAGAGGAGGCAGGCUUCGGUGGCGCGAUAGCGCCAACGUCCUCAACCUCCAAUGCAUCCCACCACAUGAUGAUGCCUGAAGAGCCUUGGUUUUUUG

# Variants of: B1
# assay_details: polymerase ribozyme fitness, log enrichment relative to wild type (log ratio); higher = more active; in vitro selection for triplet polymerase activity
metric: polymerase ribozyme fitness (log ratio)
Give a plain numeric answer without units written out.

Consider the worked cases shown below.
mutation_list	polymerase ribozyme fitness (log ratio)
G47C C49A C70A U106G	-5.44
G51A A68U C82U C124U	-7.31
C3U C53G C88A U112G U129A	-2.53
A24G G36U G93C U112A	-5.3
G42U C72U G93U A118G	-4.06
C12U C86U A103U A111U	-4.99
G44A G93U C124G	0.0379
G61A G127C	-0.956
G61C G110U	-3.71
C80U G113U	-3.41

IN: Please give the documented polymerase ribozyme fitness (log ratio) of A5C U38G U96C C104U
OUT: -2.11
